Tested on: Streptococcus sp. 'group A'
Assay: Streptococcus pyogenes SK(-)GAS viability under kanamycin – luminescence, BacTiterGlo, confirmation, counter-screen for streptokinase expression inhibitor project, dose response (AID 1900)
Assay type: functional, organism-based
The source made the active and inactive calls. Rule as the data show it: actives have a measured EC50 and inactives only a lower limit.
Property Name: EC50

O=C(C[n+]1nc(CNc2ccc(Cl)cc2)n2c1CCCCC2)c1ccc(Br)cc1 :: 5.64 µM (active)
O=C(N/N=C/c1ccccn1)c1ccc(Cl)c(Cl)c1 :: 6.21 µM (active)
Cc1ccc(O)c(C(=O)CC(=O)c2ccccc2Cl)c1 :: 4.15 µM (active)
Cc1cccc(NC2=Nc3ccccc3N3C2=Nc2c(c(C)nn2-c2ccccc2)C3c2ccc(O)c(O)c2)c1 (stereo unspecified) :: 1.54 µM (active)
COCc1cc(O)nc(Nc2nc3ccccc3o2)n1 :: 2.21 µM (active)
COc1cc([N+](=O)[O-])cc(/C=N/NC(=O)c2cc(-c3ccccc3)nc3ccccc23)c1O :: 5.37 µM (active)
